B1: TPR t1 (parent)
chain: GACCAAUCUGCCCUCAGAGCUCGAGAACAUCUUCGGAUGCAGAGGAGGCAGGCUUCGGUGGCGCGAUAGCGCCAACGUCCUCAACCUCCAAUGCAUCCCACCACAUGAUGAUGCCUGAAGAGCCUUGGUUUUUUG

Variants of: B1
Test: polymerase ribozyme fitness, log enrichment relative to wild type (log ratio); higher = more active; in vitro selection for triplet polymerase activity
polymerase ribozyme fitness (log ratio) reference
Attribute Measured: polymerase ribozyme fitness (log ratio)

INSERT INTO measurements (chain, test_result) VALUES
  ('GACCAAUUUGCCCUCACAGCUCGAGAACAUCUUCGCAUGCAGAGGAGGCAGGCUUCGGUGGCGCGAUAGCGCCAACGUCCUCAACCUCCAAUGCAUCCCACCACAUGAUGAUGCCUGAAGAGCCUUGGUUUUUUG', -4.86),
  ('GACCAAUCUGCCCUGAGAGCUCGAGAACAUCUUCGGAUGCAGAGGAGGCAGGCUUCGGUGGCGCGAUAGCGCCAACGUCCUCAACUUCCAAUGCAUCCCACCACAUGAUAAUGCCUGUAGAGCCUUGGUUUUUUG', -3.91),
  ('GACCAAUCUGCCCUCAGAGCUCGAGAACAUCUUCGGAUGCAGAGGAGGCAGGCUUCGCUGGCGCGAUAGCGCCAACGUCCUCAACCUCCAAUGCAUUCCACCACAUGAUGAUGCCUGAAGAGCCUUGGUUUUUUG', -0.321),
  ('GACCAAUCUGACCUCAGAGCUCGAGAACAUCUUCGGAUGCAGAGGAGGCAGGCUUCGGUGGCGAGAUAGCGCCAACGUCCUCAACCUCCAAUGCAUCCCACCACAUGUUAAUGCCUGAAGAGCCUUGGUUUUUUG', -6.85),
  ('GACCAAUCUGCCCUCAGAGCUCGAGAACAUCUUCGAAUGCAGAGGAGGCAGGCUUCGGUGGCGCGAUAGCGCCAACGUCCUCAAACUCCAAUGCAUCCCACCACAUGAUGAUGCCUAAAGAGCCUUGGUUUUUUG', -3.37),
  ('GACCAAUCUGCCCUCAGAGCUCGAGAACAUCUUCGGAUGCAGAGGAGGCAGGCUUCGGUGGCGCGAUAGCGCCAACGUCCUCAACCUCCAAUGCAUCCCACCACAAUAUGAUGCCCGAAGAGCCUUGGUUUUUUG', -7.47),
  ('GACCAAUCUGCCCUCAGAGCUCGAGAACAUCUUCGGAUGCAGAGGACGCAGGCUUCGGUGGCGCGAUAGCGCCAACGUACUCAACCUCCAAUGCAUCCCACCACAUGAUGAUGCCUGAAGAGCCUUGGUUUUUUG', -5.18),
  ('GACCAAUCUGCCCUCAGAGCUCGAGAACAUCUUCGGAUGCAGAGGAGGCAGGCUUCGGCGGCGCGAUAGUGCCAACGUCCUCAAACUCCAAUGCAUCCCACCACAUGAUGAUGCCUGAAGAGCCUUGGUUUUUUG', -2.04),
  ('GACCAAUCUCCCCUCAGAGCUCGAGAACAUCUUCGGAUGCAGAGGAGGCAGGCUUCGGUGGCGCGAUAGCGCCAACGUCCUCAACCUCCAAUGCAUCCUACCACAUGAUGAUGCCUGAAGAGCCUUGGUUUUUUG', -4.44),
  ('GACCAAUCUGCCCUCAGAGCUCGAGAACAUCUUCGGAUGCAGAGGAGGCAGGGUUCGGUGGCGCGAUAGCGCCAACGUCCUCAACCUCCAAGGCAUCCCACCACUUGAUGAUGCCUGAAGAGCCUUGGUUUUUUG', -6.44),
  ('GACCAAUCUGCCCUCAGAGCUCGAGAACAUCUUCGGAUGCAGAGGAGGCAGGCUUCGGUGGCGCGAUAGCGCCAACGUCCUCAACCUACAAUGCAUCCUACCACAUGAUGAUAUCUGAAGAGCCUUGGUUUUUUG', -5.9),
  ('GACCAAUCUGCCCUCAGAGCUCGAGAACAUCUUCGGUUGCAGAGGAGGCAGGCUUCGGUGGCGCGAUAGCGCCAACGUCCUCAACCUCCAACGCAUCCCACCACAUGAUGAUGCCUGAAGAGCCUUGGUUUUUUG', -1.28),
  ('GACCAAUCUGCCCUCAGAGCUCGAGAACAUCUUCGGAUGCAGAGGAGGCAGGCUCUGGUGGCGCGAUAGCGCCAACGUCCUCAACCUCCAAUGCAUCCCACCACAUGAUGAUGCCUGAAGAGCCAUGGUUUUUUG', -0.641),
  ('GACCAAUCUGCCCUCAGAGCUCGAGAACAUCUUCGGAUGCAGAGGAGGCAGGCUUCGGUGGCGCGAUAGCGCCAUCGUCCUCAACUUUCAAUGCAUCCCACCACAUGAUGAUGCCUGAAGAGCCUUGGUUUUUUG', 0.294),
  ('GACCAAUCUGCUCUCAGAGCUCGAGGACAUCUUCGGAUGCAGAGGAGGCAGGCUUUGGUGGCGCGAUAUCGCCAACGUCCUCAACCUCCAAUGCAUCCCACCACAUGAUGAUGCCUAAAGAGCCGUGGUUUUUUG', -4.97),
  ('GACCAAUCUGCCCUCAGAGCUCGAGAACAUCUUCGGAUGCAGAGGAGGCAGGCUUGGGUGGCGCGAUAGCGCAAACGUCCUCAACCUCCAAUCCAUCCCACCACAUGAUGAUGCCUGAAGAGCCUUGGUUUUUUG', -4.53);
